The entries below are paired with their reported TYK2 Degradation (5 μM).
Target: TYK2 (Homo sapiens, UniProt P29597)
Sequence (P29597 whole entry): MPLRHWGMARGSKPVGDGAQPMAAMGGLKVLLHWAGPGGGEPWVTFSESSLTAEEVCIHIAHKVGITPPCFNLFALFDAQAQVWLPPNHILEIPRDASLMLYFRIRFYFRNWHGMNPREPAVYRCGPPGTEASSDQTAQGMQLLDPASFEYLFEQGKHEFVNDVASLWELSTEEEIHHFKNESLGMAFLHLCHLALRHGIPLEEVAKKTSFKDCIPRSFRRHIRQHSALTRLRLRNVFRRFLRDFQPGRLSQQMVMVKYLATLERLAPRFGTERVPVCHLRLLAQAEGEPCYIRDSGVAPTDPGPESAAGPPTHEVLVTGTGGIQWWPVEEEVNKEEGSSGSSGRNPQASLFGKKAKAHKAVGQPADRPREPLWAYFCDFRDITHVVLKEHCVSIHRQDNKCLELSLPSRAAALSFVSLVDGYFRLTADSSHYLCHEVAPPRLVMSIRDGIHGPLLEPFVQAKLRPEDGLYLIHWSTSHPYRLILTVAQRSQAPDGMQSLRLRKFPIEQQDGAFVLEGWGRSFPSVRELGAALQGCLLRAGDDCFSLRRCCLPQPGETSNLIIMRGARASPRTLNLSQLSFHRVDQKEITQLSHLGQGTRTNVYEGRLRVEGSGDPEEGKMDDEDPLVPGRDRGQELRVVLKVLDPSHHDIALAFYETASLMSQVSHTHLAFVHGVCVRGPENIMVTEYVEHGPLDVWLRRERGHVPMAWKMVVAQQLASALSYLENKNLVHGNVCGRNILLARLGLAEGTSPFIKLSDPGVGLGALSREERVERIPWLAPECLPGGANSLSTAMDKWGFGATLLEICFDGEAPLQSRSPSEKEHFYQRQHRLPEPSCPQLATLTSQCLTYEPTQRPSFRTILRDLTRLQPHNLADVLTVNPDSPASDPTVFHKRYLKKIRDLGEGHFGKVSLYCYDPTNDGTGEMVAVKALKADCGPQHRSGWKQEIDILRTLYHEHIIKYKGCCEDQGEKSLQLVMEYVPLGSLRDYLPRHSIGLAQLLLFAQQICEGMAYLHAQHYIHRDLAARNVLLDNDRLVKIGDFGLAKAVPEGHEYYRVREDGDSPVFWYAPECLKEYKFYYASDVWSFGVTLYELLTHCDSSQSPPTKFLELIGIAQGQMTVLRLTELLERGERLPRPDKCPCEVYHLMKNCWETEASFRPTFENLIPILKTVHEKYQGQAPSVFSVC
Experiment: TYK2 protein degradation in MOLT-4 cells by immunoblotting
Format: cell-based
Set-up: endogenous in cells; host or cells: MOLT-4
Details: MOLT-4 cells, 5 μM, 24 hours

# example entries with known answers
compound=CNC(=O)c1nnc(NC(=O)C2CC2)cc1Nc1cccc(-c2ncn(CCNC(=O)CCCCC(=O)N[C@H](C(=O)N3C[C@H](O)C[C@H]3C(=O)NCc3ccc(-c4scnc4C)cc3)C(C)(C)C)n2)c1OC experimental_readout="TYK2 Degradation (5 μM)" value_observed=≤20%
compound=CNC(=O)c1nnc(NC(=O)CNC(=O)CCOCCOCCOCCOCCOCCC(=O)N[C@H](C(=O)N2C[C@H](O)C[C@H]2C(=O)NCc2ccc(-c3scnc3C)cc2)C(C)(C)C)cc1Nc1cccc(-c2ncn(C)n2)c1OC experimental_readout="TYK2 Degradation (5 μM)" value_observed=≤20%
compound=CNC(=O)c1nnc(NC(=O)CNC(=O)CCCCC(=O)N[C@H](C(=O)N2C[C@H](O)C[C@H]2C(=O)NCc2ccc(-c3scnc3C)cc2)C(C)(C)C)cc1Nc1cccc(-c2ncn(C)n2)c1OC experimental_readout="TYK2 Degradation (5 μM)" value_observed=40%
compound="CNC(=O)c1nnc(NC(=O)CNC(=O)CCCCCCCNc2cccc3c2C(=O)N(C2CCC(=O)NC2=O)C3=O)cc1Nc1cccc(-c2ncn(C)n2)c1OC (centres unmarked)" experimental_readout="TYK2 Degradation (5 μM)" value_observed=≤20%

Value of TYK2 Degradation (5 μM) reported for the compound CNC(=O)c1nnc(NC(=O)CNC(=O)COCCOCCOCC(=O)N[C@H](C(=O)N2C[C@H](O)C[C@H]2C(=O)NCc2ccc(-c3scnc3C)cc2)C(C)(C)C)cc1Nc1cccc(-c2ncn(C)n2)c1OC is ≤20%

* * *

The entries below are paired with their reported TYK2 Degradation (0.5 μM).
Biological target: TYK2 (Homo sapiens, UniProt P29597)
Assay: TYK2 protein degradation in MOLT-4 cells by immunoblotting
Assay type: cell-based
Design: endogenous in cells; host or cells: MOLT-4
Settings: MOLT-4 cells, 0.5 μM, 24 hours

compound=CNC(=O)c1nnc(NC(=O)CNC(=O)CCCCCC(=O)N[C@H](C(=O)N2C[C@H](O)C[C@H]2C(=O)NCc2ccc(-c3scnc3C)cc2)C(C)(C)C)cc1Nc1cccc(-c2ncn(C)n2)c1OC value_observed=≤20%
compound="CNC(=O)c1nnc(NC(=O)CNC(=O)CCCNc2cccc3c2C(=O)N(C2CCC(=O)NC2=O)C3=O)cc1Nc1cccc(-c2ncn(C)n2)c1OC (centres unmarked)" value_observed=≤20%
compound="CNC(=O)c1nnc(NC(=O)C2CC2)cc1Nc1cccc(-c2ncn(CCNC(=O)CCOCCOCCOCCNc3ccc4c(c3)C(=O)N(C3CCC(=O)NC3=O)C4=O)n2)c1OC (centres unmarked)" value_observed=≤20%

Value of TYK2 Degradation (0.5 μM) reported for the compound CNC(=O)c1nnc(NC(=O)C2CC2)cc1Nc1cccc(-c2ncn(CCNC(=O)CCOCCOCCOCCOCCOCCNc3ccc4c(c3)C(=O)N(C3CCC(=O)NC3=O)C4=O)n2)c1OC (centres unmarked) is 40%

Value of TYK2 Degradation (0.5 μM) reported for the compound CNC(=O)c1nnc(NC(=O)C2CC2)cc1Nc1cccc(-c2ncn(CCNC(=O)COCC(=O)N[C@H](C(=O)N3C[C@H](O)C[C@H]3C(=O)NCc3ccc(-c4scnc4C)cc3)C(C)(C)C)n2)c1OC is ≤20%

Value of TYK2 Degradation (0.5 μM) reported for the compound CNC(=O)c1nnc(NC(=O)C2CC2)cc1Nc1cccc(-c2ncn(CCNC(=O)CCCCCCCNc3ccc4c(c3)C(=O)N(C3CCC(=O)NC3=O)C4=O)n2)c1OC (centres unmarked) is ≤20%

Value of TYK2 Degradation (0.5 μM) reported for the compound CNC(=O)c1nnc(NC(=O)C2CC2)cc1Nc1cccc(-c2ncn(CCNC(=O)CCOCCOCCOCCOCCC(=O)N[C@H](C(=O)N3C[C@H](O)C[C@H]3C(=O)NCc3ccc(-c4scnc4C)cc3)C(C)(C)C)n2)c1OC is ≤20%

Value of TYK2 Degradation (0.5 μM) reported for the compound CNC(=O)c1nnc(NC(=O)CNC(=O)CNc2ccc3c(c2)C(=O)N(C2CCC(=O)NC2=O)C3=O)cc1Nc1cccc(-c2ncn(C)n2)c1OC (centres unmarked) is ≤20%

Value of TYK2 Degradation (0.5 μM) reported for the compound CNC(=O)c1nnc(NC(=O)CNC(=O)COCCOCC(=O)N[C@H](C(=O)N2C[C@H](O)C[C@H]2C(=O)NCc2ccc(-c3scnc3C)cc2)C(C)(C)C)cc1Nc1cccc(-c2ncn(C)n2)c1OC is ≤20%

Value of TYK2 Degradation (0.5 μM) reported for the compound CNC(=O)c1nnc(NC(=O)CNC(=O)CCOCCOCCNc2cccc3c2C(=O)N(C2CCC(=O)NC2=O)C3=O)cc1Nc1cccc(-c2ncn(C)n2)c1OC (centres unmarked) is ≤20%

Value of TYK2 Degradation (0.5 μM) reported for the compound CNC(=O)c1nnc(NC(=O)CNC(=O)CCCCCCCC(=O)N[C@H](C(=O)N2C[C@H](O)C[C@H]2C(=O)NCc2ccc(-c3scnc3C)cc2)C(C)(C)C)cc1Nc1cccc(-c2ncn(C)n2)c1OC is 60%

Value of TYK2 Degradation (0.5 μM) reported for the compound CNC(=O)c1nnc(NC(=O)CNC(=O)CCCCCCNc2cccc3c2C(=O)N(C2CCC(=O)NC2=O)C3=O)cc1Nc1cccc(-c2ncn(C)n2)c1OC (centres unmarked) is 60%

Value of TYK2 Degradation (0.5 μM) reported for the compound CNC(=O)c1nnc(NC(=O)CNC(=O)CCCCCCCCC(=O)N[C@H](C(=O)N2C[C@H](O)C[C@H]2C(=O)NCc2ccc(-c3scnc3C)cc2)C(C)(C)C)cc1Nc1cccc(-c2ncn(C)n2)c1OC is 60%
